Catalogue of molecules with associated MIC
Tested on: Staphylococcus aureus
TEST METHOD NOTES: In vitro minimum inhibitory concentration against Staphylococcus aureus (ATCC 29213)
Assay type: functional
# value in µg/mL; strip the unit string

CN1CCN(c2c(F)cc3c(=O)c(C(=O)O)cn4c3c2OCC42CC2)CC1 :: 2
CC1COc2c(N3CCN(C)CC3)c(F)cc3c(=O)c(C(=O)O)cn1c23 (centres undefined) [OFLOXACIN] :: 0.25
O=C(O)c1cn(C2CC2)c2cc(N3CCNCC3)c(F)cc2c1=O [CIPROFLOXACIN] :: 0.25

As a next step, examine the molecule that follows.
Entry C[C@H]1COc2c(N3CCN(C)CC3)c(F)cc3c(=O)c(C(=O)O)cn1c23.C[C@H]1COc2c(N3CCN(C)CC3)c(F)cc3c(=O)c(C(=O)O)cn1c23.O [LEVOFLOXACIN] has what MIC?
2
